# experimentalSystem: Fyn human (Homo sapiens)
# Sequence (P06241 whole entry): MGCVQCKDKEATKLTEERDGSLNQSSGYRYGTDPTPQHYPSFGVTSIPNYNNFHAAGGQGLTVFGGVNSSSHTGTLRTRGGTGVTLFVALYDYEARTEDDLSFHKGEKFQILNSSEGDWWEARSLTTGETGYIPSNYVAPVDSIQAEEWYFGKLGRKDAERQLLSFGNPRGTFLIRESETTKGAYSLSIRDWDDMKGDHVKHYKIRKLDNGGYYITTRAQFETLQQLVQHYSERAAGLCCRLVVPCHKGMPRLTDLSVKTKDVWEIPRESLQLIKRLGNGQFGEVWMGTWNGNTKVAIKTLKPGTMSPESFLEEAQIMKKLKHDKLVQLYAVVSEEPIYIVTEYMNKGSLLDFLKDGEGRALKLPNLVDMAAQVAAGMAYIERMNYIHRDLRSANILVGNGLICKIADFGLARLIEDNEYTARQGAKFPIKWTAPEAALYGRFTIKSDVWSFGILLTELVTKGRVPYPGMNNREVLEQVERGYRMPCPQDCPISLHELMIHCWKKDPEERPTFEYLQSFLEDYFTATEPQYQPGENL
# experiment: Kinase profiling, glass-fiber filter technology: Fyn
# Assay type: biochemical
# runConditions: test concentration of 10^−6 M; read-out: Fyn inhibition score
valueType: inhibition at 1 µM

>>> measuredvalue("C[C@H]1C(=O)NCCCOc2cc3c(ncnc3cc2OCCCN2CCN(C(=O)OC(C)(C)C)CC2)Nc2cc(Cl)c(F)cc2CN1C")
"> 80%"
>>> measuredvalue("CN1CCCCCOc2cc3c(ncnc3cc2OCCCNC(=O)OC(C)(C)C)Nc2cc(Br)ccc2C1")
"60 to 80%"
>>> measuredvalue("CN1CCCCCOc2cc3c(ncnc3cc2OCCCNCCS(C)(=O)=O)Nc2cc(Cl)c(F)cc2C1")
"> 80%"
>>> measuredvalue("COc1cc2ncnc3c2cc1OCCCN(CCN1CCOCC1)C(=O)CNC(=O)Cc1ccc(Cl)cc1N3")
"30 to 60%"
>>> measuredvalue("CN1CCCCCOc2cc3c(ncnc3cc2OCCCN2CCS(=O)(=O)CC2)Nc2cc(Cl)c(F)cc2C1")
"> 80%"

stdin: For the molecule `CN1CCCCCOc2cc3c(ncnc3cc2OC[C@H](O)CNCCOCCO)Nc2cc(Cl)c(F)cc2C1` , what inhibition at 1 µM is on record?
stdout: > 80%

stdin: For the molecule `CN1CCCCCOc2cc3c(ncnc3cc2OC[C@@H](O)CN2CCS(=O)(=O)CC2)Nc2cc(Br)ccc2C1` , what inhibition at 1 µM is on record?
stdout: > 80%

====

# experimentalSystem: ErbB4 (h) (Homo sapiens, UniProt Q15303)
# Sequence (Q15303 26-1308): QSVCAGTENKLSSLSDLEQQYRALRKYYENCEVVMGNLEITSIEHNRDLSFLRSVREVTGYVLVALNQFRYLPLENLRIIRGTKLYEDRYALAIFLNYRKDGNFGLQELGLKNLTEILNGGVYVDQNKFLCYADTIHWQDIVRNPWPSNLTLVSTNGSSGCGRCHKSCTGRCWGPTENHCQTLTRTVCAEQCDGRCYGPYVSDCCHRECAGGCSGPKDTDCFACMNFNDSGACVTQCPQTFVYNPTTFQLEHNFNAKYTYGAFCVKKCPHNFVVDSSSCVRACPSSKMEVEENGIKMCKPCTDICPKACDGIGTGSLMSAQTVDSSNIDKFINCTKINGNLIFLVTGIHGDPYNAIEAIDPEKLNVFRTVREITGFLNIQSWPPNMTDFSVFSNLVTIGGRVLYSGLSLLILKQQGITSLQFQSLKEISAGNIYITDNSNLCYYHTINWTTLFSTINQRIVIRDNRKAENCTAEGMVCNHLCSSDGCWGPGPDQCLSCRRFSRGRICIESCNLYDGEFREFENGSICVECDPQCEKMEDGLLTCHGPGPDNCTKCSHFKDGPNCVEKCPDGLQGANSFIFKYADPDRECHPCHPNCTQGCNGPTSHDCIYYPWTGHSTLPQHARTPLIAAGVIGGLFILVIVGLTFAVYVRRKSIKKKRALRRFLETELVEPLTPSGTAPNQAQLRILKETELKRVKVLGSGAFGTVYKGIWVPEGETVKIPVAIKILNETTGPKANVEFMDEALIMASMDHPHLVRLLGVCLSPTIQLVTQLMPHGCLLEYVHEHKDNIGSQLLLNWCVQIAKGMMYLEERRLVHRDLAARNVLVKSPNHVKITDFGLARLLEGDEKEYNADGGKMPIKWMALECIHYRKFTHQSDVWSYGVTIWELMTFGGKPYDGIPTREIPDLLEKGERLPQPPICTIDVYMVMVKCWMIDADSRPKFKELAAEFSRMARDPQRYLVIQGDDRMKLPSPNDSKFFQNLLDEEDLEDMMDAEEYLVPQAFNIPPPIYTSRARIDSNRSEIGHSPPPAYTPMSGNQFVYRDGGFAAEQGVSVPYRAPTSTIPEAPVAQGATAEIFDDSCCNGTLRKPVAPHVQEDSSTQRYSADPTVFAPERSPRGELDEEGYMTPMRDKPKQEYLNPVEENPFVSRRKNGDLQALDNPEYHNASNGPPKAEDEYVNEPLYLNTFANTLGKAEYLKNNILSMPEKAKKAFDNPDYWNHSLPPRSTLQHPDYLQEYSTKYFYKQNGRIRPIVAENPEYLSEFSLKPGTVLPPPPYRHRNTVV
# experiment: Kinase profiling, glass-fiber filter technology: ErbB4
# Assay type: biochemical
# runConditions: test concentration of 10^−6 M; read-out: ErbB4 inhibition score
Property: inhibition at 1 µM; scope: individual compounds

Before answering, review these 3 worked examples.
>>> measuredvalue("CC(=O)NCCNCCCOc1cc2ncnc3c2cc1OCCCCCN(C)Cc1ccc(Br)cc1N3 [Compound 13]")
"> 80%"
>>> measuredvalue("C#Cc1ccc2c(c1)Nc1ncnc3cc(OCCCNCCS(C)(=O)=O)c(cc13)OCCCCCN(C)C2 [Compound 20]")
"> 80%"
>>> measuredvalue("CC(=O)NCCNCCCOc1cc2ncnc3c2cc1OCCCNC(=O)[C@H](C)N(C)Cc1cc(F)c(Cl)cc1N3 [Compound 4]")
"30 to 60%"

In the following, a different compound is considered.
stdin: Lab note: need inhibition at 1 µM with ErbB4 (h) (Homo sapiens, UniProt Q15303) for entry COc1cc2ncnc3c2cc1OCCCN(CCN1CCOCC1)C(=O)CNC(=O)Cc1ccc(Cl)cc1N3 [Compound 15] , please look it up.
stdout: 10 to 30%

====

# experimentalSystem: Ret human (Homo sapiens, UniProt P07949)
# Sequence (P07949 29-1114): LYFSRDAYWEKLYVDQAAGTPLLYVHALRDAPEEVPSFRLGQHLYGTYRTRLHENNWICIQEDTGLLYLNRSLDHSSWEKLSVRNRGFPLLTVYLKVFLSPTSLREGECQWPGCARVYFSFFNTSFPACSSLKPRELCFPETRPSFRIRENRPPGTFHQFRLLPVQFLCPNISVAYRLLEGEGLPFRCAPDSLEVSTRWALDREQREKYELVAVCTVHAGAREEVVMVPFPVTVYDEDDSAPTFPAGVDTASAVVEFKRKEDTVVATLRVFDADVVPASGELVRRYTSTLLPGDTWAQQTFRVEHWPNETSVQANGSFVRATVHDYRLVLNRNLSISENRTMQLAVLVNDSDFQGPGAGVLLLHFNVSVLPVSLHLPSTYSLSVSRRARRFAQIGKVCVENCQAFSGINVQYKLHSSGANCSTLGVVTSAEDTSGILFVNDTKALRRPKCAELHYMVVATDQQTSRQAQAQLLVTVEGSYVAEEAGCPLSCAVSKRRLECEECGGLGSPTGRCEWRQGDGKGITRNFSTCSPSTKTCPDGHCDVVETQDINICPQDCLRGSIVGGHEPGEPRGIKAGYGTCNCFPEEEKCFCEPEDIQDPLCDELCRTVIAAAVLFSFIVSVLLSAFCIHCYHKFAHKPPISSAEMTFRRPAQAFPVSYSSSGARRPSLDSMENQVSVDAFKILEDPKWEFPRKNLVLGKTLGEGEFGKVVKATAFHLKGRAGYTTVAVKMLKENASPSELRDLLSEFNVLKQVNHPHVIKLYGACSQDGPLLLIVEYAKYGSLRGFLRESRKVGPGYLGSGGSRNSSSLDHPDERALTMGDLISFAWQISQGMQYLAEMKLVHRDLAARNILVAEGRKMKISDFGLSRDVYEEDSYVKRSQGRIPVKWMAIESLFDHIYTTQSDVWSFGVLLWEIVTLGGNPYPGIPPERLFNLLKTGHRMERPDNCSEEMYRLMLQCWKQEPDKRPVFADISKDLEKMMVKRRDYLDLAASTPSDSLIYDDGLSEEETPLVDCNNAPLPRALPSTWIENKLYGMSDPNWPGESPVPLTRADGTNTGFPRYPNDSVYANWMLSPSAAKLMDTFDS
# experiment: Kinase profiling, glass-fiber filter technology: Ret
# Assay type: biochemical
# runConditions: test concentration of 10^−6 M; read-out: Ret inhibition score
valueType: inhibition at 1 µM

>>> measuredvalue("COc1cc2ncnc3c2cc1OCCCNC(=O)[C@H](CC1CCCCC1)NC(=O)CCc1ccc(Cl)cc1N3")
"> 80%"

stdin: Lab note: need inhibition at 1 µM with Ret human (Homo sapiens, UniProt P07949) for entry `C[C@H]1C(=O)NCCCOc2cc3c(ncnc3cc2OCCCN2CCN(C(=O)OC(C)(C)C)CC2)Nc2cc(Cl)c(F)cc2CN1C` , please look it up.
stdout: > 80%

stdin: Lab note: need inhibition at 1 µM with Ret human (Homo sapiens, UniProt P07949) for entry `CN1CCCCCOc2cc3c(ncnc3cc2OCCCNC(=O)OC(C)(C)C)Nc2cc(Br)ccc2C1` , please look it up.
stdout: > 80%

stdin: Lab note: need inhibition at 1 µM with Ret human (Homo sapiens, UniProt P07949) for entry `COCCOCCOc1cc2ncnc3c2cc1OCCCCCN(C)Cc1ccc(Br)cc1N3` , please look it up.
stdout: > 80%

stdin: Lab note: need inhibition at 1 µM with Ret human (Homo sapiens, UniProt P07949) for entry `CC(=O)N(CCO)CCCOc1cc2ncnc3c2cc1OCCCNC(=O)[C@H](C)N(C)Cc1cc(F)c(Cl)cc1N3` , please look it up.
stdout: 60 to 80%

stdin: Lab note: need inhibition at 1 µM with Ret human (Homo sapiens, UniProt P07949) for entry `COc1cc2ncnc3c2cc1OCCCN(CCCN1CCOCC1)C(=O)[C@H](CC(C)C)NC(=O)Cc1ccc(Br)cc1N3` , please look it up.
stdout: 30 to 60%

stdin: Lab note: need inhibition at 1 µM with Ret human (Homo sapiens, UniProt P07949) for entry `CN1CCCCCOc2cc3c(ncnc3cc2OCCCN2CCS(=O)(=O)CC2)Nc2cc(Cl)c(F)cc2C1` , please look it up.
stdout: > 80%

stdin: Lab note: need inhibition at 1 µM with Ret human (Homo sapiens, UniProt P07949) for entry `COc1cc2ncnc3c2cc1OCCCN(CCN1CCOCC1)C(=O)CNC(=O)Cc1ccc(Cl)cc1N3` , please look it up.
stdout: 10 to 30%

stdin: Lab note: need inhibition at 1 µM with Ret human (Homo sapiens, UniProt P07949) for entry `CC(=O)NCCNCCCOc1cc2ncnc3c2cc1OCCCCCN(C)Cc1ccc(Br)cc1N3` , please look it up.
stdout: > 80%

stdin: Lab note: need inhibition at 1 µM with Ret human (Homo sapiens, UniProt P07949) for entry `C#Cc1ccc2c(c1)Nc1ncnc3cc(OCCCNCCS(C)(=O)=O)c(cc13)OCCCCCN(C)C2` , please look it up.
stdout: > 80%

stdin: Lab note: need inhibition at 1 µM with Ret human (Homo sapiens, UniProt P07949) for entry `CN1CCCCCOc2cc3c(ncnc3cc2OCCCNCCS(C)(=O)=O)Nc2cc(Br)ccc2C1` , please look it up.
stdout: > 80%

stdin: Lab note: need inhibition at 1 µM with Ret human (Homo sapiens, UniProt P07949) for entry `CN1CCCCCOc2cc3c(ncnc3cc2OC[C@@H](O)CN2CCS(=O)(=O)CC2)Nc2cc(Br)ccc2C1` , please look it up.
stdout: > 80%

stdin: Lab note: need inhibition at 1 µM with Ret human (Homo sapiens, UniProt P07949) for entry `CC(=O)OCCN(C)CCCOc1cc2ncnc3c2cc1OCCCNC(=O)[C@H](C)N(C)Cc1cc(F)c(Cl)cc1N3` , please look it up.
stdout: > 80%

stdin: Lab note: need inhibition at 1 µM with Ret human (Homo sapiens, UniProt P07949) for entry `CC(=O)NCCNCCCOc1cc2ncnc3c2cc1OCCCNC(=O)[C@H](C)N(C)Cc1cc(F)c(Cl)cc1N3` , please look it up.
stdout: > 80%
